test.target: epidermal growth factor receptor (EGFR) (Homo sapiens, UniProt P00533)
Sequence (P00533 25-1210): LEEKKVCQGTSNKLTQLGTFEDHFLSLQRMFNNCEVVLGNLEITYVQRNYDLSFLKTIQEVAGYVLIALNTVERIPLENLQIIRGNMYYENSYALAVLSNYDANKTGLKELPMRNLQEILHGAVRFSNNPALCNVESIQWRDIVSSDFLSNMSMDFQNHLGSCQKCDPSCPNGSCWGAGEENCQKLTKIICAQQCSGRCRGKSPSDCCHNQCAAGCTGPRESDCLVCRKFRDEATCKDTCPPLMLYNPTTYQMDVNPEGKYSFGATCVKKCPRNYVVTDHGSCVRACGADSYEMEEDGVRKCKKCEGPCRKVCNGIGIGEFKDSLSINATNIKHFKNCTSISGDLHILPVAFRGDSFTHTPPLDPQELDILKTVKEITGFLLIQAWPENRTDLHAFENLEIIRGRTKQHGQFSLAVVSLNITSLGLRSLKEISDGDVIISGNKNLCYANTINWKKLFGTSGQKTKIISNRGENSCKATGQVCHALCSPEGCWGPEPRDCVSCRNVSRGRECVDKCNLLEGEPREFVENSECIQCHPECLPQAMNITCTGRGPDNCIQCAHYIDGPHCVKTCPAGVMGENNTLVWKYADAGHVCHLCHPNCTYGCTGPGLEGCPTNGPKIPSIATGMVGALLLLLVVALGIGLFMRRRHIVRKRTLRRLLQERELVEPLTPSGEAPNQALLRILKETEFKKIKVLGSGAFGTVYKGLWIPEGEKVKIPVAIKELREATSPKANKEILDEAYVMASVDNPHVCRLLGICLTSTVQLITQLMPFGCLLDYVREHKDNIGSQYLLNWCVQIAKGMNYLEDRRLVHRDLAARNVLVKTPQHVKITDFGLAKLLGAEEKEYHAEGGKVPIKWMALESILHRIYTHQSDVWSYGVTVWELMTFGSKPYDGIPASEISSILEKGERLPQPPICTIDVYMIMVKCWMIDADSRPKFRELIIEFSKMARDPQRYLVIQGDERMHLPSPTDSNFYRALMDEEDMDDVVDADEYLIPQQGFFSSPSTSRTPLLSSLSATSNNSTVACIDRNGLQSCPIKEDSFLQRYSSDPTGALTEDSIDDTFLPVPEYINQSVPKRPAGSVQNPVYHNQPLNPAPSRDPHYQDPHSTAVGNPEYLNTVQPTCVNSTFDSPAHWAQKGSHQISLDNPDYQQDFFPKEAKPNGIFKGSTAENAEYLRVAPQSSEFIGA
run.description: EGF-induced EGFR autophosphorylation in A431 cells (Western blot), with washout reversibility assay
pIC50: −log10 of the molar value.
recorded.endpoint: pIC50

>>> val("CC(=O)OCN(C)/N=N/c1ccc2ncnc(Nc3cccc(Br)c3)c2c1")
"~5.70"
